- TEST_DETAILS: yeast display, Sf9 membrane polyspecificity reagent, FACS + sequencing; frameworks hold sequencing errors
QUANTITY_MEASURED: polyreactivity (PSR sort gate)

QVQLVESGGGLVQAGGSLRLSCAASGINFAAYVMGWYRQAPGKERELFAAISKSGGRTYYADSVKGRFTISRDNAKNTVYLQMNSLKPEDTAVYYCAASYTYFSFGIGTDVRYGYWGQGTQVTVSS	high polyreactivity
QVQLVESGGGLVQAGGSLRLSCAASGSIFWWNAMGWYRQAPGKERELVARITRGGTTYYADSVKGRFTISRDNAKNTVYLQMNSLKPEDTAVYSCNAVSGWSRYDFWGQGSQVTVSS	low polyreactivity
QVQLVESGGGLVQARRSLRLSCAASGITFVFYTMGWYRQAPGKERELVAAITSSGVRTSYADSVKGRFTISRDNAMNTVYLQMNSLKPEDTAVYYCAAKPTYVHKPGYNYWGQGTQVTVSS	high polyreactivity
QVQLVESGGGLVQAGGSLRLSCADSGIIFHEYAMGWYRQAPGKERELVASISWNDGSTYADSVKGRFTISRDNAKNTVYLQMNSLKPEDTAVYYCAADYPYYPFSSIYDYWGQGTQVTVSS	low polyreactivity
QVQLVESGGGLVQAGGSLRLSCAASGSTLYRNAMGWYRQQPGKERELVAGITSSGTTTYYADSVKGRFTISRDNAKNTVYLQMNSLKPEDTAVYYCAARSLGFYYYDMDYWGQGTQVTVSS	low polyreactivity
QVQLVESGGGLVQSGGSLRLSCAASGFIFEAYAMGWYRQAPGKEMELVAAISSGGSTKYADSVKGRFTISRDNAKNSVYLQMNSLKPEDTAVYYCAKSSWTYGAYNYLGQGTQVTVSS	high polyreactivity
QVQLVESGGGLVQAGGSLRLSCAASGSTFPYYAMGWYRQAPGKERELVAAISSSGGSTYYADSVKGRFTISRDNAKNTVYLQMNSLKPEDTAVYYCATSSRYVDGYEMDYWGQGTQVSVSS	high polyreactivity
QVQLVESGGGLVQAGGSLRLTCDASGSTFVNYAMGWYRQAPGKERELVAAITDSGGSTYYADSVKGRFTISRDNAKNTVYLQMNCLKPEDTAVYYCATEGYYYYTSYDYWGQGTQVTVSS	low polyreactivity

Query :: Give the reported value of polyreactivity (PSR sort gate) for this record: `QVQLVESGGGLVQAGGSLRLSCAASGYTFYRYTMGWYRQAPGKEREVVAAINSGGSTNYADSLKGRFTISRDNAKNTVYLQMNSLKPEDTAVYYCARRYQTWPRWYDYWGQGTQVTVSS`
Result :: high polyreactivity

Query :: Output measured polyreactivity (PSR sort gate) for this item: `QVQLVESGGGLVQAGGTLRLSCAASGIIFLVNAMGWYRQAPGKERELVATITSGGSTYADSVKGRFTISRDNAKNTVYLQMNSLKPEDTAVYYCAAVRRRRNSYGYWGQGTQVTVSS`
Result :: high polyreactivity

Query :: Give polyreactivity (PSR sort gate) for the following sequence: `QVQHVESGGGLVQAGGSLRLSCDASGRIFAWYAMGWYRHAPGKERELVASISSGGRTNYADSVKGRFTISRDIAKNTVYLQMNSLKPVDTAVYYCNVAIVWPWYGRWFQEYDYWGQGTQVTVSS`
Result :: low polyreactivity
